- systemTested: T1, human CD134 (full-length, on cells) (human, UniProt P43489 29-277)
- T1 construct: also called OX40; TNFRSF4
- T1 sequence: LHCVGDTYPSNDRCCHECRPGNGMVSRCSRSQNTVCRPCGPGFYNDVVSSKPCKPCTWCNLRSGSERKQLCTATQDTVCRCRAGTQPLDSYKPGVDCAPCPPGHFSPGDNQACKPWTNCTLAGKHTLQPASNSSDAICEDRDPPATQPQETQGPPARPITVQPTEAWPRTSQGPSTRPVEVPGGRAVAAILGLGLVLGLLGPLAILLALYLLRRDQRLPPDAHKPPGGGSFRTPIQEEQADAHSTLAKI
- experimentSummary: flow cytometry, stable CD134 293-F clone no. 23
- Experimental: Full-length human CD134 (SEQ ID NO. 1) was re-cloned in a pcDNA3.1-derived expression plasmid (see Example 11 (d) below). […] Binding of antibodies was measured using flow cytometry (FACSCalibur; BD Biosciences).
outcomeMeasure: EC50

Exam item: Given the binder mouse anti-human CD134 monoclonal antibody clone 12H3 (antibody, V domains shown, also called m12H3; parental mouse anti-human CD134 antibody clone 12H3) VH: EVQLQQSGPELVKPGASVKISCKTSGYTFKDYTMHWVKQSHGKSLEWIGGIYPNNGGSTYNQNFKDKATLTVDKSSSTAYMEFRSLTSEDSAVYYCARMGYHGPHLDFDVWGAGTTVTVSP VL: DIVMTQSHKFMSTSLGDRVSITCKASQDVGAAVAWYQQKPGQSPKLLIYWASTRHTGVPDRFTGGGSGTDFTLTISNVQSEDLTDYFCQQYINYPLTFGGGTKLEIKR , what is its reported EC50?
Marked response: > 0.2 mg/L

Exam item: Given the binder humanized IgG4κ anti-human CD134 antibody clone 12H3 version 12H3_VL1VH2 (antibody, V domains shown, Stabilized human IgG4/κ; end of each range computed; also called 12H3_VL1H2; 2H3 VL1VH2 (SF2)) VH: QVQLVQSGAEVKKPGSSVKVSCKASGYTFKDYTMHWVRQAPGQGLEWIGGIYPNNGGSTYNQNFKDRVTLTADKSTSTAYMELSSLRSEDTAVYYCARMGYHGPHLDFDVWGQGTTVTVSS VL: DIQMTQSPSSLSASVGDRVTITCKASQDVGAAVAWYQQKPGKAPKLLIYWASTRHTGVPSRFSGSGSGTDFTLTISSLQPEDFATYYCQQYINYPLTFGGGTKVEIKR , what is its reported EC50?
Marked response: < 0.2 mg/L

Exam item: Given the binder chimeric human IgG4κ anti-human CD134 antibody clone 12H3 (antibody, V domains shown, Murine V-regions linked to human IgG4 and human kappa constant regions; also called chimeric 12H3 (human IgG4/κ)) VH: EVQLQQSGPELVKPGASVKISCKTSGYTFKDYTMHWVKQSHGKSLEWIGGIYPNNGGSTYNQNFKDKATLTVDKSSSTAYMEFRSLTSEDSAVYYCARMGYHGPHLDFDVWGAGTTVTVSP VL: DIVMTQSHKFMSTSLGDRVSITCKASQDVGAAVAWYQQKPGQSPKLLIYWASTRHTGVPDRFTGGGSGTDFTLTISNVQSEDLTDYFCQQYINYPLTFGGGTKLEIKR , what is its reported EC50?
Marked response: > 0.2 mg/L

Exam item: Given the binder humanized IgG4κ anti-human CD134 antibody clone 12H3 version 12H3_VL2VH1 (antibody, V domains shown, Stabilized human IgG4/κ; end of each range computed; also called 12H3_VL2H1) VH: QVQLVQSGAEVKKPGSSVKVSCKASGYTFKDYTMHWVRQAPGQGLEWMGGIYPNNGGSTYNQNFKDRVTITADKSTSTAYMELSSLRSEDTAVYYCARMGYHGPHLDFDVWGQGTTVTVSS VL: DIQMTQSPSSLSASVGDRVTITCKASQDVGAAVAWYQQKPGKAPKLLIYWASTRHTGVPDRFSGGGSGTDFTLTISSLQPEDFATYYCQQYINYPLTFGGGTKVEIKR , what is its reported EC50?
Marked response: < 0.2 mg/L

Exam item: Given the binder humanized IgG4κ anti-human CD134 antibody clone 12H3 version 12H3_VL1VH1 (antibody, V domains shown, Stabilized human IgG4 (Angal et al.)/κ; also called 12H3_VL1H1) VH: QVQLVQSGAEVKKPGSSVKVSCKASGYTFKDYTMHWVRQAPGQGLEWMGGIYPNNGGSTYNQNFKDRVTITADKSTSTAYMELSSLRSEDTAVYYCARMGYHGPHLDFDVWGQGTTVTVSS VL: DIQMTQSPSSLSASVGDRVTITCKASQDVGAAVAWYQQKPGKAPKLLIYWASTRHTGVPSRFSGSGSGTDFTLTISSLQPEDFATYYCQQYINYPLTFGGGTKVEIKR , what is its reported EC50?
Marked response: < 0.2 mg/L
